Consider the following binders; for each one, report its IC50.
target or system: HLA-DQ molecule DQB1*0502 (human)
test summary: inhibition of radiolabeled peptide binding to purified HLA-DQ
# answer = value followed by unit

Per the record, IVYIKPAKNIYSFNE [Bet v 6 (211-225) peptide IVYIKPAKNIYSFNE] has IC50 of 5.83 µM

For EDTNIYNSNEAFKVE [Cup a 1 (316-330) peptide EDTNIYNSNEAFKVE] the binder record lists IC50 as 2.42 µM

// field: IC50; key: KALWIIFSQNMNIKL [Cup a 1 (66-80) peptide KALWIIFSQNMNIKL] ; value = 50 µM

Query NMNIKLKMPLYVAGH [Cup s 1 (96-110) peptide NMNIKLKMPLYVAGH] yields IC50 of 20.8 µM

Data provenance: patent US20150004189A1
